- test.system: human IL12Rβ1, cell-expressed (human, UniProt P42701 24-662)
- protocol.notes: cell-based or functional assay
Each entry below carries its recorded IC50, IFNγ release, T cells D839.
value.kind: IC50, IFNγ release, T cells D839 (nM)

binder	value.kind	endpoint.value
IL12Rb1#31-35GS-CD4#8 (bispecific antibody, also called BI#47; T023200047) EVQLVESGGGLVQTGGSLRLSCAASGRTPSIIAMGWFRQTPGKEREFVGEIILSKGFTYYADSVKGRFTISRANAKNTITMYLQMNSLKSEDTAVYYCAARQNWSGNPTRTNEYEYWGQGTLVTVSSGGGGSGGGGSGGGGSGGGGSGGGGSGGGGSGGGGSEVQLVESGGGSVQPGGSLTLSCGTSGRTFNVMGWFRQAPGKEREFVAAVRWSSTGIYYTQYADSVKSRFTISRDNAKNTVYLEMNSLKPEDTAVYYCAADTYNSNPARWDGYDFRGQGTLVTVSS	IC50, IFNγ release, T cells D839	4.1
IL12Rb1#30-35GS-CD4#8 (bispecific antibody, also called BI#46; T023200046) EVQLVESGGGLVQTGGSLRLSCAASGRTPRLVAMGWFRQTPGKEREFVGEIILSKGFTYYADSVKGRFTISRVNAKNTITMYLQMNSLKSEDTAVYYCAGRQNWSGSPARTNEYEYWGQGTLVTVSSGGGGSGGGGSGGGGSGGGGSGGGGSGGGGSGGGGSEVQLVESGGGSVQPGGSLTLSCGTSGRTFNVMGWFRQAPGKEREFVAAVRWSSTGIYYTQYADSVKSRFTISRDNAKNTVYLEMNSLKPEDTAVYYCAADTYNSNPARWDGYDFRGQGTLVTVSS	IC50, IFNγ release, T cells D839	0.29
CD4#8-35GS-IL12Rb1#31 (bispecific antibody, also called BI#41; T023200041) EVQLVESGGGSVQPGGSLTLSCGTSGRTFNVMGWFRQAPGKEREFVAAVRWSSTGIYYTQYADSVKSRFTISRDNAKNTVYLEMNSLKPEDTAVYYCAADTYNSNPARWDGYDFRGQGTLVTVSSGGGGSGGGGSGGGGSGGGGSGGGGSGGGGSGGGGSEVQLVESGGGLVQTGGSLRLSCAASGRTPSIIAMGWFRQTPGKEREFVGEIILSKGFTYYADSVKGRFTISRANAKNTITMYLQMNSLKSEDTAVYYCAARQNWSGNPTRTNEYEYWGQGTLVTVSS	IC50, IFNγ release, T cells D839	1.7
